- assay-summary: HCT116 colon cancer cell growth inhibition, primary screen, CellTiter-Glo luminescence, NPC library (AID 1117342)
- setup-conditions: at 20 µM (top of the series)
Active and inactive are the calls of the source.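 The calls were made as follows: active = compounds that lower survival of HCT116 colon cancer cells in the luminescence readout, no numeric limit stated; inactive = the rest.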
Your response should consist of one outcome taken from class 1 (active), class 0 (inactive)

q: Record request — test call for COc1cc(NS(=O)(=O)c2ccc(N)cc2)nc(C)n1
a: class 0

q: For this molecule, state the assay outcome: COC(=O)c1cc(Cl)ccc1OC
a: class 0

q: // return assay outcome for Nc1ccc(C(=O)OCC(O)CO)cc1 (stereo not drawn)
a: class 0

q: # lookup: test call for CC(CSC(=O)c1ccccc1)C(=O)N1C[C@@H](Sc2ccccc2)C[C@H]1C(=O)O (stereo partly drawn)
a: class 0

q: Please share the test call associated with O=P(O)(O)C(O)(Cc1cnc2ccccn12)P(=O)(O)O .
a: class 1

q: How did this test come out for CCOC(=O)C(O)c1ccccc1 (stereo not drawn) ?
a: class 0

q: Called result for N[C@@H](Cc1cc(I)c(O)c(I)c1)C(=O)O
a: class 0

q: Per the assay record, what outcome was assigned to O=C1Cc2cc(Cl)ccc2N1 ?
a: class 0

q: What classification did Nc1ccncc1N end up with in this test?
a: class 0

q: Status in this test for NS(=O)(=O)c1cc(-c2nn[nH]n2)c(NCc2cccs2)cc1Cl ?
a: class 0

q: Dear all, I need the recorded test outcome for NC(=O)CC[C@@H](N)C(=O)O , thank you.
a: class 0

q: Dear colleague, could you share the recorded outcome for CN(C)CCCN1c2ccccc2CCc2ccccc21 when you have a moment?
a: class 0

q: Could you please tell me the result logged for C[C@@H](O)[C@H]1C(=O)N2C(C(=O)O)=C([C@H]3CCCO3)S[C@H]12 in this assay?
a: class 0
